- Tgt: EGFR (Homo sapiens, UniProt P00533, DEL746-750)
- Construct: endogenous in cells; host or cells: HCC827
- Sequence (P00533 with tags, fused parts or gaps DEL746-750): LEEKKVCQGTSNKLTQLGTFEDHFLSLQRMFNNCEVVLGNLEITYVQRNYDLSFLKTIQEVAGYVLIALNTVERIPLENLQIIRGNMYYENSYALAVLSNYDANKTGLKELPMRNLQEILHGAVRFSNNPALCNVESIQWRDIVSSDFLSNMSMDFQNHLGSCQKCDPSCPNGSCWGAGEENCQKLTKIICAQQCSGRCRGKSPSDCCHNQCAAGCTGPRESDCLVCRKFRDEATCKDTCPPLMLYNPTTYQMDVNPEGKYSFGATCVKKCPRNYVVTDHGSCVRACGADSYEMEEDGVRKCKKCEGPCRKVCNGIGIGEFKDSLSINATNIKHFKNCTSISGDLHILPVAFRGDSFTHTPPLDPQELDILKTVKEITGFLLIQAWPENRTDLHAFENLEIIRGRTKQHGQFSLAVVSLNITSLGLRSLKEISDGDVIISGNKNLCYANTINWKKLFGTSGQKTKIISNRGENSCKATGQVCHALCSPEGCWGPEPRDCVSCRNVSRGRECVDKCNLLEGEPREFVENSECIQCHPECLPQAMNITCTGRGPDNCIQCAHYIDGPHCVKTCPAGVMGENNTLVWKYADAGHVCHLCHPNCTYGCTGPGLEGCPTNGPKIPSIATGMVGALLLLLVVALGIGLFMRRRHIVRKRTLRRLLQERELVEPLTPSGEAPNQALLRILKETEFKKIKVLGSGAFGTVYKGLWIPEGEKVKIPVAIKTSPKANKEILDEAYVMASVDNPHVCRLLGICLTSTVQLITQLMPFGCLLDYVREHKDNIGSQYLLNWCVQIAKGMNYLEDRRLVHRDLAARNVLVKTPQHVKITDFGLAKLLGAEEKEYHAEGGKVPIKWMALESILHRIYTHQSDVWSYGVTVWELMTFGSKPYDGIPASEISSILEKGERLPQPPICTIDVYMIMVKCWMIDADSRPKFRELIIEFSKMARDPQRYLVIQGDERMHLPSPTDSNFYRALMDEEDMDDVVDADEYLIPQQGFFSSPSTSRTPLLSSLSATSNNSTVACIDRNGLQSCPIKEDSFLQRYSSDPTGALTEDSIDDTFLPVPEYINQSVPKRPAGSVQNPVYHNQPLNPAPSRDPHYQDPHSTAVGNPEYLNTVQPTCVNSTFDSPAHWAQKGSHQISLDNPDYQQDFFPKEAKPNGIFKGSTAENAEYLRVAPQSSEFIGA
- Sequence (Q96SW2 whole entry partner): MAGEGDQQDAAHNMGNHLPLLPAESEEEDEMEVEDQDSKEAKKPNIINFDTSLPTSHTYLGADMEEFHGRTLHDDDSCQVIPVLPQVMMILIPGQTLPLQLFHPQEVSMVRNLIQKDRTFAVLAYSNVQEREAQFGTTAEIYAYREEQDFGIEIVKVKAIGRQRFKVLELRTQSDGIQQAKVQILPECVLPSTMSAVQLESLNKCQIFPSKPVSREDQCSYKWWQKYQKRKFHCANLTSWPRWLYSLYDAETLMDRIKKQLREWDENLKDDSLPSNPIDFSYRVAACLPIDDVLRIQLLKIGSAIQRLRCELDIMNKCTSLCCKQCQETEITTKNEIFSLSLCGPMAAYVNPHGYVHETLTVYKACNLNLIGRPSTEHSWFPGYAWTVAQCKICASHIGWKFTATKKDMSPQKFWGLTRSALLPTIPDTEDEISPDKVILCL
- Assay Procedure: Cell Degradation 2: EGFR degradation in HCC827 cells, HTRF assay
- Format: cell-based
- Measurement Conditions: 16 h treatment, EGFR degradation by HTRF
With a cut-off of 4 nM, any DC50 strictly below it is called TRUE; any DC50 meeting it or above is called FALSE.

Challenge: Bench note: check whether COc1cc(CCN2CCN(C3CCN(c4ccc(Nc5nc(Nc6cccc7c6N(S(C)(=O)=O)CC7)c6cc[nH]c6n5)cc4F)CC3)CC2)ccc1C1CCC(=O)NC1=O (centres unmarked) [Example 2] shows DC50 below 4 nM
Response given: FALSE

Challenge: How about this compound: CS(=O)(=O)N1CCc2cccc(Nc3nc(Nc4ccc(N5CCC(N6CCN(CCC7CCN(c8cc(F)c(C9CCC(=O)NC9=O)c(F)c8)CC7)CC6)CC5)c(F)c4)nc4[nH]ccc34)c21 (centres unmarked) [Example 67]
Response given: TRUE

Challenge: How about this compound: COc1cc(N2CCC(N3CCN(C[C@H]4CCN(c5ccc6c(c5)CN(C5CCC(=O)NC5=O)C6=O)C4)CC3)CC2)c(C)cc1Nc1ncc(Br)c(Nc2cccc3c2N(S(C)(=O)=O)CC3)n1 (some centres unmarked) [Example 168]
Response given: TRUE

Challenge: How about this compound: CS(=O)(=O)N1CCc2cccc(Nc3nc(Nc4ccc(N5CCC(N6CCN(CCc7ccc(C8CCC(=O)NC8=O)cc7)CC6)CC5)c(F)c4)ncc3Cl)c21 (centres unmarked) [Example 45]
Response given: FALSE

Challenge: How about this compound: COc1cc(N2CCC(N3CCN(CCCC4CN(c5ccc6c(c5)C(=O)N(C5CCC(=O)NC5=O)C6=O)C4)CC3)CC2)c(C)cc1Nc1ncc(Br)c(Nc2cccc3c2N(S(C)(=O)=O)CC3)n1 (centres unmarked) [Example 44]
Response given: FALSE
